- protocol text: Phase I plasma pharmacokinetics
- Format: in vivo, human
- stated conditions: human, plasma, iv, 1.375 mg/kg, Cohort 3: 1.375 mg/kg; N = 3; 90-min IV infusion; Cycle 1 Day 8; plasma LC-MS; read-out: Time to peak plasma concentration, Mean (SD)
- Method: Blood samples were taken on Days 1, 3, 8 and 10 of Cycle 1 to assess the pharmacokinetic (PK) profile of SOR-C13 at the various doses used. Plasma samples for the IV 20 min infusion were taken at pre-infusion, 5, 15 min after the start of infusion and post-infusion at 2, 5, 10 and 30 min and 1, 4 h. Plasma samples for SOR-C13 analysis for the 90 min infusion were taken pre-infusion, at 5, 15 and 45 min after the start of infusion, and at 2, 5, 10 and 30 min post-infusion. […]
Ends that are not written are not given here.
quantity name: Tmax (min)
// return numeric value only (unit: min, not printed)

Query block: What value of measured Tmax is listed for KEFLHPSKVDLPR [SOR-C13] ?
Result block: 47.2
